Attribution: ChEMBL document CHEMBL1153063

tgt: Neuronal acetylcholine receptor subunit alpha-7 (Rattus norvegicus, UniProt Q05941)
Sequence (Q05941 whole entry): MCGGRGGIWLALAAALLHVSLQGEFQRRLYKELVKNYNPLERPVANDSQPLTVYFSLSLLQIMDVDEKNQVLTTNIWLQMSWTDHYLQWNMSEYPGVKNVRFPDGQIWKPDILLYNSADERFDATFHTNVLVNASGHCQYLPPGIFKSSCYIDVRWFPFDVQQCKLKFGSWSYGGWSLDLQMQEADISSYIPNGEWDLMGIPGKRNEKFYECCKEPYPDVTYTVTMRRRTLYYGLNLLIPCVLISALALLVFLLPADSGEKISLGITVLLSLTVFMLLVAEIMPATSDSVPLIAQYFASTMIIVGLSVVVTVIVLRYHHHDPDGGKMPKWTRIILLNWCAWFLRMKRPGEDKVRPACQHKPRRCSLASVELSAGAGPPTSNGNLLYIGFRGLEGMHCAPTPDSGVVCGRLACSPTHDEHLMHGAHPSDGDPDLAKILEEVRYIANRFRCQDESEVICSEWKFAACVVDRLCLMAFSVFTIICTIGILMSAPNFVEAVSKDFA
measurement.description: Displacement of [125I]BTX from rat alpha7 nAChR expressed in rat GH4C1 cells
pKi: −log10 of the molar value.

>  <smiles.text>
O=C(Oc1ccc(-c2cccnc2)cc1)N1CCN2CCC1CC2

>  <censoring.qualifier>
=

>  <pKi>
6.69

$$$$
>  <smiles.text>
O=C(Oc1ccc(-c2ccccn2)cc1)N1CCN2CCC1CC2

>  <censoring.qualifier>
=

>  <pKi>
6.45

$$$$
>  <smiles.text>
O=C(Nc1ccc(Br)cc1)N1CCN2CCC1CC2

>  <censoring.qualifier>
=

>  <pKi>
6.48

$$$$
>  <smiles.text>
C[C@@H]1CN(C(=O)Oc2ccc(Br)cc2)CCN1

>  <censoring.qualifier>
<

>  <pKi>
5.30

$$$$
>  <smiles.text>
COc1ccc(OC(=O)N2CCN3CCC2CC3)cc1

>  <censoring.qualifier>
=

>  <pKi>
6.70

$$$$
>  <smiles.text>
O=C(c1ccccc1)c1cccc(OC(=O)N2CCN3CCC2CC3)c1

>  <censoring.qualifier>
=

>  <pKi>
7.96

$$$$
>  <smiles.text>
Cc1ccc(OC(=O)N2CCN3CCC2CC3)cc1

>  <censoring.qualifier>
=

>  <pKi>
6.75

$$$$
>  <smiles.text>
O=C(Oc1ccc(Cl)cc1)N1CCN2CCC1CC2

>  <censoring.qualifier>
=

>  <pKi>
7.10

$$$$
>  <smiles.text>
O=C(Oc1ccc2ccccc2c1)N1CCN2CCC1CC2

>  <censoring.qualifier>
=

>  <pKi>
7.64

$$$$
>  <smiles.text>
O=C(Oc1ccc(F)cc1)N1CCN2CCC1CC2

>  <censoring.qualifier>
=

>  <pKi>
6.27

$$$$
>  <smiles.text>
O=C(Oc1ccc(Cl)c(F)c1)N1CCN2CCC1CC2

>  <censoring.qualifier>
=

>  <pKi>
7.07

$$$$
>  <smiles.text>
O=C(c1ccccc1)c1cc(OC(=O)N2CCN3CCC2CC3)ccc1Br

>  <censoring.qualifier>
=

>  <pKi>
7.80

$$$$
>  <smiles.text>
O=C(Oc1ccccc1Cl)N1CCN2CCC1CC2

>  <censoring.qualifier>
=

>  <pKi>
6.06

$$$$
>  <smiles.text>
C[C@@H]1CN(C(=O)Oc2ccc(Br)cc2)C[C@H](C)N1

>  <censoring.qualifier>
<

>  <pKi>
5.30

$$$$
>  <smiles.text>
O=C(Oc1cccc(Br)c1)N1CCN2CCC1CC2

>  <censoring.qualifier>
=

>  <pKi>
8.02

$$$$
>  <smiles.text>
S=C(Oc1ccccc1)N1CCN2CCC1CC2

>  <censoring.qualifier>
=

>  <pKi>
6.13

$$$$
